# target.entity: Nuclear receptor subfamily 4 group A member 2 (Homo sapiens)
# method.description: ATG_NURR1_TRANS: Attagene TRANS-FACTORIAL HepG2 Assay for human Nuclear Receptor Related Protein 1 (NURR1) (AID 2282985)
# assay.context: HepG2 Attagene TRANS reporter, mRNA readout
Inconclusive results are not listed. Active and inactive are the calls of the source. How the source made its calls: active means hit-call score of the fitted dose curve at least 0.9, where 1 is the maximum; inconclusive means response in the unintended direction; inactive means score below 0.9.
assay.endpoint: AC50

OC[C@@H](O)[C@@H](O)[C@H](O)[C@@H](O)CO
inactive
O=S(=O)(OCC(F)F)C(F)(F)F
inactive
CCc1c(Br)c(Br)c(Br)c(Br)c1Br
26.8 µM (active)
C=CC(F)(F)C(F)(F)C(F)(F)C(F)(F)C(F)(F)C(F)(F)C(F)(F)C(F)(F)F
inactive
O=C(O)C(F)(F)C(F)(F)C(F)(F)C(F)(F)C(F)(F)C(F)(F)C(F)(F)C(F)(F)C(F)(F)C(F)(F)C(F)(F)C(F)(F)F
inactive
O=C(O)C(F)(F)C(F)(F)C(F)(F)C(F)(F)C(F)(F)C(F)(F)C(F)(F)C(F)(F)C(F)(F)C(F)F
28.2 µM (active)
O=S(=O)(OCCOC(F)(F)F)C(F)(F)F
inactive
CCN(Cc1cccc(S(=O)(=O)O)c1)c1ccc(C(=C2C=CC(=[N+](CC)Cc3cccc(S(=O)(=O)O)c3)C=C2)c2ccc(O)cc2S(=O)(=O)[O-])cc1
inactive

Incoming: Entry `FC(F)(Br)C(F)(F)C(F)(F)C(F)(F)C(F)(F)C(F)(F)Br` has what AC50?
Outgoing: inactive

The values you see were collected from PubChem BioAssay (EPA / NIEHS).
